Origin of values: PubChem BioAssay

- Test system: XIP peptide (Xip251-270) binding
- assayRemarks: small-molecule binders of XIP peptide, primary screen, biochemical, small-molecule microarray, fluorescence 635/667 nm, 0.1 µg/mL protein (AID 1182)
- studyConditions: fluorescent protein binding, 635 nm, higher = more signal, called active from +8 up or from −8 down
// Not satisfied strictly below 0.3 in composite z-score; Satisfied otherwise

# querySmiles, measuredTarget, classLabel
rows = [
    ("C=CCOC(=O)[C@@H]1[C@H]2C(=O)O[C@H](c3ccccc3)[C@H](c3ccccc3)N2[C@H](c2ccc(OCCOC(=O)[C@H]3C[C@H]4C(=O)NCC(=O)N4[C@H]3c3ccc(O)cc3)cc2)[C@@]12C(=O)Nc1ccc(I)cc12", "XIP peptide (Xip251-270) binding", "Satisfied"),
    ("C[N+](C)(C)CCCC[C@@H]1NC(=O)[C@H]2C[C@@H](C(=O)NCCCCCNC(=O)CS)[C@@H](c3ccc(O)cc3)N2C1=O", "XIP peptide (Xip251-270) binding", "Satisfied"),
]

Exam item: Textbook exercise: given the entry COc1ccc([Si](C)(C)[C@H]2[C@H](CC(=O)N3Cc4ccccc4C[C@H]3CO)O[C@@]3(C(=O)N(Cc4cccc(N5C(=O)c6cccc7cccc5c67)c4)c4ccccc43)[C@@H]2C)cc1 , state whether its composite z-score is greater than or equal to 0.3.
Marked response: Not satisfied

Exam item: Textbook exercise: given the entry CC(=O)NCCCC[C@@H]1NC(=O)[C@H]2C[C@@H](C(=O)NCCCCCC[N+](C)(C)C)[C@@H](c3ccc(O)cc3)N2C1=O , state whether its composite z-score is greater than or equal to 0.3.
Marked response: Not satisfied

Exam item: Textbook exercise: given the entry Cc1ccc(S[C@]2(C(=O)NCCN3CCOCC3)CC(=O)N(C3CCCCC3)[C@@H]2c2ccc(CO)cc2I)cc1 , state whether its composite z-score is greater than or equal to 0.3.
Marked response: Satisfied

Exam item: Textbook exercise: given the entry CC(C)CNC(=O)[C@@H]1c2ccccc2C(=O)N(Cc2ccccc2Cl)[C@H]1c1ccc(CO)cc1 , state whether its composite z-score is greater than or equal to 0.3.
Marked response: Not satisfied

###

Recorded composite z-score by entry
- measuredTarget: Fibroblast growth factor 2 (Homo sapiens)
- assayRemarks: FGF2 binders on small-molecule microarrays, primary screen, biochemical, small-molecule microarray, 635/667 nm fluorescence (AID 1133)
- studyConditions: small-molecule microarray binding, FGF2, fluorescence 635/667; higher = more signal
Please reply with the number alone, leaving off any unit.

Below, each entry is followed by its recorded composite z-score result.
# querySmiles, composite z-score
records = [
    ("C=C(C(=O)CC[C@@H](OC(C)=O)c1cccc(OCCO)c1)C(C)C", -0.531),
    ("CCc1cccc(NC(=O)O[C@H]2[C@H](OC(=O)Nc3ccc4c(c3)OCO4)[C@H](OC(=O)Nc3ccc4c(c3)OCO4)[C@@H](OC)O[C@@H]2CO)c1", 0.0183),
]

Please turn your attention to the following entry.
Exam item: GET /values?readout=composite z-score&item= COCCOC(=O)N1C(=O)[C@@]2(c3cc(C#CCC(C(=O)OC)C(=O)OC)ccc31)[C@H](C(=O)N1CCCCCCC1)[C@H]1C(=O)O[C@H](c3ccccc3)[C@H](c3ccccc3)N1[C@@H]2c1ccccc1OCCO
Marked response: 1.43

###

Recorded z-score by entry
- assayRemarks: E. coli DRC41 culture turbidity changes, primary screen, E. coli filamentation inducer project, strain DRC41, OD650, 48 h (AID 1152);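 note: E. coli MC1000 strain DRC41 lacking acrAB efflux pump and sulA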
- studyConditions: E. coli DRC41 (acrAB sulA), higher = more signal, called active from +8 up or from −8 down
Please reply with the number alone, leaving off any unit.

Below, each entry is followed by its recorded z-score result.
# compound, measurementLabel, measValue
data = [
    ("COC(=O)[C@H](Cc1ccc(O)cc1)N1CC2=CCCC=C[C@@H]2[C@H]1[C@H](O)Cc1ccccc1", "z-score", 1.42),
    ("COCCOC(=O)N1C(=O)[C@@]2(c3cc(C#CC4=CCCCC4)ccc31)[C@H](C(=O)N1CCN(c3ncccn3)CC1)[C@H]1C(=O)O[C@H](c3ccccc3)[C@H](c3ccccc3)N1[C@@H]2c1ccccc1OCCO", "z-score", 2.23),
    ("NC(=O)[C@@]1(CCS(=O)(=O)c2ccccc2)COC(c2ccc(OCCCO)cc2)=N1", "z-score", 1.05),
    ("CC(C)C[C@@H]1NC(=O)[C@@H]2C[C@H](C(=O)NCCCC[N+](C)(C)C)[C@H](c3ccc(O)cc3)N2C1=O", "z-score", -0.04),
    ("COCCOC(=O)N1C(=O)[C@@]2(c3cc(C#Cc4ccc(OC)cc4)ccc31)[C@H](C(=O)Nc1nc3ccccc3s1)[C@H]1C(=O)O[C@H](c3ccccc3)[C@H](c3ccccc3)N1[C@@H]2c1ccccc1OCCO", "z-score", 2.47),
]

Exam item: GET /values?readout=z-score&item= O=C1O[C@H](c2ccccc2)[C@H](c2ccccc2)N2[C@H]1[C@@H](C(=O)N1CCN(c3ncccn3)CC1)[C@]1(C(=O)Nc3ccccc31)[C@H]2c1ccc(O)cc1
Marked response: 0.649

Exam item: GET /values?readout=z-score&item= C[N+](C)(C)CCCCCCNC(=O)[C@H]1C[C@H]2C(=O)NCC(=O)N2[C@H]1c1cccc(OCCO)c1
Marked response: -0.191

Exam item: GET /values?readout=z-score&item= CCOC(=O)C1=CC[C@@H](c2ccc(F)cc2)N(S(=O)(=O)c2ccc(C)cc2)[C@H]1c1ccc([N+](=O)[O-])cc1
Marked response: 0.251

Exam item: GET /values?readout=z-score&item= CN(C)CCCC[C@@H]1NC(=O)[C@H]2C[C@@H](C(=O)NCc3ccc(F)cc3)[C@@H](c3ccc(O)cc3)N2C1=O
Marked response: 0.104

Exam item: GET /values?readout=z-score&item= COCCOC(=O)N1C(=O)[C@@]2(c3cc(C#CC4(O)CCCCCC4)ccc31)[C@H](c1ccc(OCCO)cc1)N1[C@H](c3ccccc3)[C@H](c3ccccc3)OC(=O)[C@H]1[C@@H]2C(N)=O
Marked response: -0.137

Exam item: GET /values?readout=z-score&item= COC(=O)[C@@]1(Cc2ccccc2)[C@H]2c3cc(C(=O)N4CCCC4)n(Cc4ccc(C(F)(F)F)nc4)c3C[C@H]2CN1C(=O)c1ccccc1
Marked response: -1.31

Exam item: GET /values?readout=z-score&item= COC(=O)[C@]1(CO)N=C(c2ccc(OCCCO)cc2)O[C@@H]1c1ccccc1CN=[N+]=[N-]
Marked response: 0.699

Exam item: GET /values?readout=z-score&item= [N-]=[N+]=NCc1ccccc1C[C@]1(C(=O)N2CCCCC2)N=C(c2ccc(OCCCO)cc2)O[C@H]1c1ccccc1
Marked response: 0.74

Exam item: GET /values?readout=z-score&item= COCCCNC(=O)[C@@]1(Sc2ccc(C)cc2)CC(=O)N(C2CCCCC2)[C@@H]1c1ccc(CO)cc1I
Marked response: -0.251

Exam item: GET /values?readout=z-score&item= C=CCC(OC(C)=O)[C@@H]1[C@@H](N(Cc2ccc(-c3ccccc3)cc2)C(=O)c2ccc(-c3ccccc3)cc2)c2cc(OCCCO)ccc2N1C(=O)c1ccc2ccccc2n1 (some centres not stated)
Marked response: 0.803

###

- assayRemarks: basal S. cerevisiae growth modulation, no modifier, primary screen, OD600, strain BY4716, 24 h, basal condition (AID 1173)
- studyConditions: OD600, 24 h, higher = more signal, called active from +8 up or from −8 down
// condition not met strictly below -0.2 in z-score; condition met otherwise

Answered examples (5):
# compound, classLabel
data = [
    ("O=C1OCCC=C[C@H]2OC34C=CCN(CCN5CCOCC5)C(=O)[C@H]3N(CCCO)C(=O)[C@@H]4C12 (some centres undefined)", "condition not met"),
    ("COCCOC(=O)N1C(=O)[C@@]2(c3cc(C#Cc4ccc(OC)cc4)ccc31)[C@H](C(=O)Nc1nc3ccccc3s1)[C@H]1C(=O)O[C@H](c3ccccc3)[C@H](c3ccccc3)N1[C@@H]2c1ccccc1OCCO", "condition met"),
    ("Cc1ccc(F)cc1S(=O)(=O)N[C@@H]1CCN(Cc2ccc3[nH]ccc3c2)C1", "condition not met"),
    ("COc1ccc(CCNC(=O)[C@@]2(Sc3ccc(C)cc3)CC(=O)N(C(C)C)[C@@H]2c2ccc(CO)cc2)cc1", "condition met"),
    ("O=C1C2C=CC(C(O)c3cccs3)N(Nc3ccccc3)C2C(=O)N1c1ccccc1 (centres undefined)", "condition not met"),
]

Could you now look at the following compound, please?
Exam item: Textbook exercise: given the entry O=C1C2C=CC(C(O)c3ccc([N+](=O)[O-])cc3)N(Nc3ccccc3)C2C(=O)N1c1ccccc1 (centres undefined) , state whether its z-score is greater than or equal to -0.2.
Marked response: condition not met
